Reference for the values: patent US11897862B2

biological target: IKZF1 (Homo sapiens, UniProt Q13422+Q96SW2); construct: expressed in transfected cells; assay: HEK293 HiBiT in vitro degradation of IKZF1; assay type: cell-based; conditions: HEK293, HEK293 HiBiT; maximum degradation at the highest concentration tested
Sequence (Q13422 whole entry): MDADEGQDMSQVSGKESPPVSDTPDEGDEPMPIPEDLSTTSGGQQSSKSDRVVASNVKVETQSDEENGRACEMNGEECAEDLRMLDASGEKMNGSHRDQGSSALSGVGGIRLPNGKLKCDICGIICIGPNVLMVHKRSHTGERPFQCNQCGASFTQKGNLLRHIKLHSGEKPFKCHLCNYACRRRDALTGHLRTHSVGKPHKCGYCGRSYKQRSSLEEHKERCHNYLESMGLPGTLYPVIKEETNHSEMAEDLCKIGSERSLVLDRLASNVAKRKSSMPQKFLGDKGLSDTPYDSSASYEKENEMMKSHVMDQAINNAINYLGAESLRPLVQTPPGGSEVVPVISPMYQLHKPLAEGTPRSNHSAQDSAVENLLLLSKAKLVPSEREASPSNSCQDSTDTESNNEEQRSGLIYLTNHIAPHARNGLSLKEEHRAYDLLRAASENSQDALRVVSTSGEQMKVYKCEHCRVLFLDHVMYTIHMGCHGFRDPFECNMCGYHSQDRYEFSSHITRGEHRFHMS
Sequence (Q96SW2 whole entry): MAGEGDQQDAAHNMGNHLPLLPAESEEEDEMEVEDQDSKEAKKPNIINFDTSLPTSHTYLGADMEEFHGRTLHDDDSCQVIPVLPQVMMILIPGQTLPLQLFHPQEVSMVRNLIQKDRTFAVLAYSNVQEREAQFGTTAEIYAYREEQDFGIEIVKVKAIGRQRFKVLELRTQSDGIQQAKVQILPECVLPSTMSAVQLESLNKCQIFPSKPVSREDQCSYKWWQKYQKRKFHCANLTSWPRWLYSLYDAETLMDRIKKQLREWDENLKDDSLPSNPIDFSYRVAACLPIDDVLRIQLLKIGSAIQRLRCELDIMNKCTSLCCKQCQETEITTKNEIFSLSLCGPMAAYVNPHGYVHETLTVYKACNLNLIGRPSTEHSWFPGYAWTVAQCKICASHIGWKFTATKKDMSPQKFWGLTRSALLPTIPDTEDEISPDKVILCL
Sequence (Q16531 whole entry partner): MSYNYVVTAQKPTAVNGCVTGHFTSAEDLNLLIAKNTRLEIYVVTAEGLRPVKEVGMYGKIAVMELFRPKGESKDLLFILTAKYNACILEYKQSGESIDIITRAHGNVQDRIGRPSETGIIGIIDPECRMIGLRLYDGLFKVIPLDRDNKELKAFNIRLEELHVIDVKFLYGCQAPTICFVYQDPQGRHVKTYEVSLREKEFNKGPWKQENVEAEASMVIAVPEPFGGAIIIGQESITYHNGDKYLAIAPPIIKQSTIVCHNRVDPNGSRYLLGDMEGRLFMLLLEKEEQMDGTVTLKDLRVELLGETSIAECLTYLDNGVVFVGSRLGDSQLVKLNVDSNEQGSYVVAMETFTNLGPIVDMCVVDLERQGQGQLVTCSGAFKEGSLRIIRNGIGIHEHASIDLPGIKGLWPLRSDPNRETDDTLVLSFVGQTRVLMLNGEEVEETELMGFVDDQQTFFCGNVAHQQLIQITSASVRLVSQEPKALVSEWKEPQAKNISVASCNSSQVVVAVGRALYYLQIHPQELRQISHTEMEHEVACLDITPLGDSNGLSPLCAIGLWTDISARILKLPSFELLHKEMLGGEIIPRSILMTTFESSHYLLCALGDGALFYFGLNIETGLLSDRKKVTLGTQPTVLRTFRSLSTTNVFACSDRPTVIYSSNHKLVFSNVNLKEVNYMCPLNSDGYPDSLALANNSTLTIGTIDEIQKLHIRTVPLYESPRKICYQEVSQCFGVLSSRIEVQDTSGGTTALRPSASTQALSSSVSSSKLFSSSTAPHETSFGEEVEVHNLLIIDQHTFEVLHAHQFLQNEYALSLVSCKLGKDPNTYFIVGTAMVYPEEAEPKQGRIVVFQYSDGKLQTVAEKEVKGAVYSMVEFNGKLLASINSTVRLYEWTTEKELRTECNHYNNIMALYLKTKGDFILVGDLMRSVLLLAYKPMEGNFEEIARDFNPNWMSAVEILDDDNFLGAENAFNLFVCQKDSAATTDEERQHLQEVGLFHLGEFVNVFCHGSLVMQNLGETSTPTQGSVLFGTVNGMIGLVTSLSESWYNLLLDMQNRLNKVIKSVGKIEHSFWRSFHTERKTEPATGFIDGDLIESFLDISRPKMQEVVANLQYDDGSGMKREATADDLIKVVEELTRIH
Could you mark each record Condition met if its Dmax falls strictly under 40%, and Condition not met if it equals or exceeds it?

Example cases with answers are listed next.
[in] Quick check: Dmax of O=C1CCC(N2Cc3c(ccc(C[C@H]4CCCC[C@@H]4NCC4CCOCC4)c3F)C2=O)C(=O)N1 (stereo partly shown) [Example 115] under 40%?
[out] Condition met

[in] Dmax strictly < 40% for this compound? O=C1CCC(N2Cc3cc(C[C@H]4CCCC[C@@H]4NC4CC5CC5C4)ccc3C2=O)C(=O)N1 (single isomer, unassigned) [Example 266]
[out] Condition met

[in] Field: below-cutoff. Rule: recorded Dmax strictly less than 40%. Subject: O=C1CCC(N2Cc3cc(C[C@H]4CCC(F)(F)C[C@@H]4NC4CCC(F)(F)CC4)ccc3C2=O)C(=O)N1 (stereo partly shown) [Example 345]
[out] Condition not met

[in] # check: Dmax < 40% for N#CC1CCC(N[C@H]2CCCC[C@@H]2Cc2ccc3c(c2)CN(C2CCC(=O)NC2=O)C3=O)CC1 (single isomer, unassigned) [Example 267]
[out] Condition not met

[in] Just wondering, is Dmax of O=C1CCC(N2Cc3cc(C[C@H]4CCCC[C@@H]4NC4CCC(F)(F)CC4)ccc3C2=O)C(=O)N1 (stereo partly shown) [Example 46] below 40%?
[out] Condition met

[in] Does the reported Dmax of CC(CCCC(F)(F)F)N[C@H]1CCCO[C@@H]1Cc1ccc2c(c1F)CN(C1CCC(=O)NC1=O)C2=O (stereo partly shown) [Example 321] stay below 40%?
[out] Condition not met

---
[in] I'd appreciate it if you could check whether O=C1CCC(N2Cc3cc(C[C@H]4CCCC[C@@H]4NC4CCC5(CC4)CC5)ccc3C2=O)C(=O)N1 (stereo partly shown) [Example 28] has Dmax smaller than 40%.
[out] Condition not met

[in] State whether 40% exceeds Dmax recorded for O=C1CCC(N2Cc3cc(C[C@H]4CCCC[C@@H]4NC4CCC(C(F)(F)F)CC4)ccc3C2=O)C(=O)N1 (single isomer, unassigned) [Example 121] .
[out] Condition met

[in] Say whether its Dmax is strictly beneath 40%. Entry: O=C1CCC(N2Cc3c(ccc(C[C@H]4CCCC[C@@H]4NC4CCCCC4)c3F)C2=O)C(=O)N1 (stereo partly shown) [Example 88]
[out] Condition met

[in] API: query returns whether the compound falls strictly under 40% in Dmax. Query: O=C1CCC(N2Cc3cc(C[C@H]4CCCC[C@@H]4NC4CC5(CCOCC5)C4)ccc3C2=O)C(=O)N1 (stereo partly shown) [Example 125]
[out] Condition met

[in] Find out if reported Dmax for O=C1CCC(N2Cc3c(ccc(C[C@H]4OCCC[C@@H]4NC4CC5(CCC5)C4)c3F)C2=O)C(=O)N1 (stereo partly shown) [Example 157] is less than 40%
[out] Condition met

[in] Lab note: Dmax threshold 40%. Does this compound come in strictly under it? O=C1CCC(N2Cc3c(ccc(C[C@H]4OCCC[C@@H]4NC4CCC5(CC4)CC5(F)F)c3F)C2=O)C(=O)N1 (single isomer, unassigned) [Example 364]
[out] Condition met

---

target: IKZF2 (Homo sapiens, UniProt Q96SW2+Q9UKS7); experiment: HEK293 IKZF2 degradation kinetics (HiBiT, timepoints 1-24 h); assay type: cell-based; design: expressed in transfected cells; conditions: HEK293, IKZF2; timepoints 1, 2, 3, 4.5 and 24 hour; read-out: Maximum degradation rate Kinact (converted)
Sequence (Q9UKS7 1-500 isoform Q9UKS7-2): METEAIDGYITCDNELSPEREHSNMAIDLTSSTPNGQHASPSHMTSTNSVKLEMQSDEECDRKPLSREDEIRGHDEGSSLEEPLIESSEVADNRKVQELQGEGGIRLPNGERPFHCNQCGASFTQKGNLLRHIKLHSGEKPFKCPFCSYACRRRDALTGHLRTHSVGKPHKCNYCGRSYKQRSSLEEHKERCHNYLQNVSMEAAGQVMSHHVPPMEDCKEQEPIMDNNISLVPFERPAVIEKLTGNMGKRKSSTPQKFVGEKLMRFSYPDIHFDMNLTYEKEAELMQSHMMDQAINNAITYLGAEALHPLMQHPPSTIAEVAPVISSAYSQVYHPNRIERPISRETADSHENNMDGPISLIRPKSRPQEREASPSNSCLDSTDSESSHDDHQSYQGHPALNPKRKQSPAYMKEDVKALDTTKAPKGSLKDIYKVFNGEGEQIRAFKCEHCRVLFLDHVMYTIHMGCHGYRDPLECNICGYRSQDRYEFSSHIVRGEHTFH
Sequence (Q96SW2 whole entry): as the sequence (Q96SW2 whole entry) above
Sequence (Q16531 whole entry partner): as the sequence (Q16531 whole entry partner) above
Item-by-item account of kinact
Reply with just the number (in s⁻¹).

[in] Report kinact, nothing else, for this molecule: O=C1CC[C@H](N2Cc3cc(C[C@H]4CCCC[C@@H]4NC4CCC(F)(F)CC4)ccc3C2=O)C(=O)N1 (single isomer, unassigned)
[out] 0.000175

[in] Respond only with kinact recorded for O=C1CCC(N2Cc3cc(O[C@H]4CCCC[C@@H]4NCc4ccccc4)ccc3C2=O)C(=O)N1 (stereo partly drawn)
[out] 5.56e-05

[in] For the molecule CC1CC[C@H](NC2CCC(F)(F)CC2)[C@@H](Cc2ccc3c(c2)CN(C2CCC(=O)NC2=O)C3=O)C1 (single isomer, unassigned) , report kinact.
[out] 0.000108

[in] Answer with reported kinact of O=C1CCC(N2Cc3cc(C[C@H]4CCCC[C@@H]4NC4CCCCC4)ccc3C2=O)C(=O)N1 (stereo partly drawn)
[out] 0.000147

Continuing:
[in] Answer with the recorded kinact for the molecule listed here: O=C1CC[C@@H](N2Cc3c(ccc(C[C@H]4OCCC[C@@H]4N[C@H]4CC[C@H](F)CC4)c3F)C2=O)C(=O)N1 (single isomer, unassigned)
[out] 0.000111

[in] Report measured kinact; entry is O=C1CCC(N2Cc3c(ccc(C[C@H]4OCCC[C@@H]4NC4CCC(C(F)F)CC4)c3F)C2=O)C(=O)N1 (single isomer, unassigned)
[out] 9.44e-05

---

target: IKZF2 (Homo sapiens, UniProt Q96SW2+Q9UKS7); assay: Human whole blood IKZF2 degradation (flow cytometry, CD4/CD25/Foxp3+ Treg cells); format: cell-based; set-up: endogenous in cells; settings: 24 hrs incubation, IKZF2 MFI in CD4/CD25/Foxp3+ Treg cells, flow cytometry, read-out: IKZF2 EC50
Sequence (Q9UKS7 whole entry): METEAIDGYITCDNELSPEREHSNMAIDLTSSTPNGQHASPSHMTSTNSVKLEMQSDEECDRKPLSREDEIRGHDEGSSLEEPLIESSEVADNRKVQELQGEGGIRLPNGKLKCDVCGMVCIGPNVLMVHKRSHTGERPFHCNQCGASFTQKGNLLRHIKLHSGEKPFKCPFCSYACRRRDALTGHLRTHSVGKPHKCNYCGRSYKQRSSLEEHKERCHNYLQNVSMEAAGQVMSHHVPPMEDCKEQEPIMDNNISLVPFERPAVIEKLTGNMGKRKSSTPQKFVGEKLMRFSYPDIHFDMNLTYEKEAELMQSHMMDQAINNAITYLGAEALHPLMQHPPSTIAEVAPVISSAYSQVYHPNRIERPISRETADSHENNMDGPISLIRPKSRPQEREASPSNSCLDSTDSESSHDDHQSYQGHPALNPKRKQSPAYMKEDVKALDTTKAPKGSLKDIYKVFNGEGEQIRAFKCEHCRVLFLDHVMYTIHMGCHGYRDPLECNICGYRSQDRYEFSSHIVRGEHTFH
Sequence (Q96SW2 whole entry): as the sequence (Q96SW2 whole entry) above
Sequence (Q16531 whole entry partner): as the sequence (Q16531 whole entry partner) above
Let's look at some compounds and their measured DC50.
A number alone suffices; assume nM.

Previously resolved entries follow.
[in] Tell me DC50 reported for O=C1CCC(N2Cc3cc(C[C@H]4CCCC[C@@H]4NC4CCCCCC4)ccc3C2=O)C(=O)N1 (stereo partly shown) [Example 196]
[out] 3

[in] Give me measured DC50, please, for this compound: O=C1CCC(N2Cc3c(ccc(C[C@H]4OCCC[C@@H]4NC4CCOCC4)c3F)C2=O)C(=O)N1 (stereo partly shown) [Example 305]
[out] 4

[in] Consider the compound O=C1CCC(N2Cc3c(ccc(C[C@H]4OCCC[C@@H]4N[C@H]4CC[C@H](F)CC4)c3F)C2=O)C(=O)N1 (single isomer, unassigned) [Example 289] . State its measured DC50.
[out] 5

[in] State its DC50 for this compound: O=C1CCC(N2Cc3c(ccc(C[C@H]4CCCC[C@@H]4NC4CCC(F)(F)CC4)c3F)C2=O)C(=O)N1 (stereo partly shown) [Example 84]
[out] 1

[in] Quickly give me recorded DC50 for CC(N[C@H]1CCCO[C@@H]1Cc1ccc2c(c1F)CN(C1CCC(=O)NC1=O)C2=O)C1CCOCC1 (single isomer, unassigned) [Example 291]
[out] 5

[in] Using known records, supply DC50 for N#CC1CCC(N[C@H]2CCCC[C@@H]2Cc2ccc3c(c2)CN(C2CCC(=O)NC2=O)C3=O)CC1 (single isomer, unassigned) [Example 267]
[out] 2

Further cases:
[in] Report measured DC50; entry is O=C1CCC(N2Cc3cc(C[C@H]4CCCC[C@@H]4NCC4CC(F)(F)C4)ccc3C2=O)C(=O)N1 (stereo partly shown) [Example 24]
[out] 8

---

target: IKZF2 (Homo sapiens, UniProt Q96SW2+Q9UKS7); experiment: HEK293 HiBiT in vitro degradation of IKZF2; type: cell-based; parameters: expressed in transfected cells; conditions: HEK293 HiBiT; maximum degradation at the highest concentration tested
Readings of IKZF2 Dmax for the listed compounds

Some compounds with recorded IKZF2 Dmax:
[in] Under IKZF2 (Homo sapiens, UniProt Q96SW2+Q9UKS7), report IKZF2 Dmax for O=C1CCC(N2Cc3cc(C[C@H]4CCCC[C@@H]4NC4CCC(C(F)(F)F)CC4)ccc3C2=O)C(=O)N1 (single isomer, unassigned)
[out] 96%

[in] Write IKZF2 Dmax of C[C@H]1CCCC(N[C@H]2CCCC[C@@H]2Cc2ccc3c(c2)CN(C2CCC(=O)NC2=O)C3=O)C1 (stereo partly drawn) ; system used: IKZF2 (Homo sapiens, UniProt Q96SW2+Q9UKS7)
[out] 96%

[in] Enter measured IKZF2 Dmax, system IKZF2 (Homo sapiens, UniProt Q96SW2+Q9UKS7), for the compound shown: CC(C)OC1CCC(N[C@H]2CCCC[C@@H]2Cc2ccc3c(c2)CN(C2CCC(=O)NC2=O)C3=O)CC1 (single isomer, unassigned)
[out] 97%

[in] Report IKZF2 Dmax from IKZF2 (Homo sapiens, UniProt Q96SW2+Q9UKS7) testing of CC(N[C@H]1CCCC[C@@H]1Cc1ccc2c(c1)CN(C1CCC(=O)NC1=O)C2=O)C1(C)CC1 (stereo partly drawn)
[out] 97%

[in] # return IKZF2 Dmax for CC(N[C@H]1CCCC[C@@H]1Cc1ccc2c(c1)CN(C1CCC(=O)NC1=O)C2=O)C1CCCC1 (stereo partly drawn) , test system: IKZF2 (Homo sapiens, UniProt Q96SW2+Q9UKS7)
[out] 95%

Shifting focus to the compound that follows.
[in] Write IKZF2 Dmax of N#CCC1CCC(N[C@H]2CCCC[C@@H]2Cc2ccc3c(c2)CN(C2CCC(=O)NC2=O)C3=O)CC1 (single isomer, unassigned) ; system used: IKZF2 (Homo sapiens, UniProt Q96SW2+Q9UKS7)
[out] 98%
